experiment-summary: Cytotoxicity against human PBMC cells assessed as reduction in cell growth incubated for 72 hrs by CCK8 assay
Format: toxicity, cell-based
Measured IC50 at 72 h, listed per entry.
Write the answer as a number in µM, unit excluded.

Suppose we examine the molecule CC(CO)(CO)NCc1cc(Cl)c(Oc2ncnc3c(-c4ccc5c(c4)OCCO5)cccc23)cc1OCc1cncc(C#N)c1 ; what IC50 at 72 h value has been reported? 12.4

Repeat with N#Cc1cncc(COc2cc(Oc3ncnc4c(-c5ccc6c(c5)OCCO6)cccc34)c(Cl)cc2CNC(CO)CO)c1 5.31

====

assay-system: Programmed cell death protein 1/Programmed cell death 1 ligand 1 (Homo sapiens, UniProt Q15116+Q9NZQ7)
Sequence (Q15116 whole entry, the tested form may be a part): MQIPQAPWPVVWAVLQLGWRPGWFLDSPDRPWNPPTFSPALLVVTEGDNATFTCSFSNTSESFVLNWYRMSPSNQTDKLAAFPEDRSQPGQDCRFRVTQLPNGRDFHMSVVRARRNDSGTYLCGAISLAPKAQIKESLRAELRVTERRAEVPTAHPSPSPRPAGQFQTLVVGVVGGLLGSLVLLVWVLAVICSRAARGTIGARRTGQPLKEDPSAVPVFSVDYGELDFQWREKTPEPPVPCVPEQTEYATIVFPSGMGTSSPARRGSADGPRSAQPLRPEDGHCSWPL
Sequence (Q9NZQ7 whole entry, the tested form may be a part): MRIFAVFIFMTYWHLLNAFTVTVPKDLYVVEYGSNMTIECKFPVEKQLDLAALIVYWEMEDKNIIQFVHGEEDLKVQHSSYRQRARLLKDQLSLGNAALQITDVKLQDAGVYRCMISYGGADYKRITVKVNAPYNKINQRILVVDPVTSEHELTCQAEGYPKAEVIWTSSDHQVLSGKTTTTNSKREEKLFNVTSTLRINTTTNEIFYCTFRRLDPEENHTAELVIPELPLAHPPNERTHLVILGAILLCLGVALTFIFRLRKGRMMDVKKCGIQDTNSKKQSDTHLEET
experiment-summary: Inhibition of PD-1/PD-L1 (unknown origin) interaction
Type: protein-complex assay
outcome-measure: IC50 (nM)
Write the answer as a number in nM, unit excluded.

Suppose we examine the compound CC(C)OC(=O)[C@H](CO)NCc1cc(Cl)c(OCc2cccc(-c3ccc4c(c3)OCCO4)c2Br)cc1OCc1cccnc1 ; what IC50 value has been reported? 10

====

assay-system: Programmed cell death protein 1/Programmed cell death 1 ligand 1 (Homo sapiens, UniProt Q15116+Q9NZQ7)
experiment-summary: Inhibition of C-terminal-Fc-tagged human recombinant PD-1 (25 to 167 residues)/C-terminal-His-tagged recombinant human PD-L1 (19 to 238 residues) interaction incubated for 40 mins by HTRF assay
Format: protein-complex assay
pIC50: −log10 of the molar value.
outcome-measure: pIC50

Suppose we examine the compound Cc1c(-c2ccccc2)cccc1-c1nc2cc(CNCCO)ccc2o1 ; what pIC50 value has been reported? ≥ 8.00

====

assay-system: Programmed cell death protein 1/Programmed cell death 1 ligand 1 (Homo sapiens, UniProt Q15116+Q9NZQ7)
experiment-summary: Inhibition of Tag2-PD-1/Tag1-PD-L1 (unknown origin) protein-protein interaction incubated for 15 mins by HTRF assay
Assay type: protein-complex assay
Measured pIC50, listed per entry.
// scale note: pIC50 = -log10(conc_M); give the bare number

Sample records with pIC50:
N#Cc1cncc(COc2cc(Oc3ncnc4c(-c5ccc6c(c5)OCCO6)cccc34)c(Cl)cc2CNCCO)c1    7.91
N#Cc1cncc(COc2cc(Oc3ncnc4c(-c5ccccc5)cccc34)c(Cl)cc2CNCCO)c1    6.77
CC(C)(NCc1cc(Cl)c(Oc2ncnc3c(-c4ccc5c(c4)OCCO5)cccc23)cc1OCc1cccc(C#N)c1)C(=O)O    7.05
CC(CO)(CO)NCc1cc(Cl)c(Oc2ncnc3c(-c4ccc5c(c4)OCCO5)cccc23)cc1OCc1cncc(C#N)c1    8.80
N#Cc1cccc(COc2cc(Oc3ncnc4c(-c5ccccc5)cccc34)c(Cl)cc2CNCCO)c1    7.10
N#Cc1cccc(COc2cc(Oc3ncnc4c(-c5ccccc5)cccc34)c(Cl)cc2CNC(CO)CO)c1    7.62
CC(C)(NCc1cc(Cl)c(Oc2ncnc3c(-c4ccccc4)cccc23)cc1OCc1cccc(C#N)c1)C(=O)O    6.82

Consider the record given below.
Suppose we examine the compound N#Cc1cncc(COc2cc(Oc3ncnc4c(-c5ccc6c(c5)OCCO6)cccc34)c(Cl)cc2CNC(CO)CO)c1 ; what pIC50 value has been reported? 8.27

====

assay-system: Programmed cell death protein 1/Programmed cell death 1 ligand 1 (Homo sapiens, UniProt Q15116+Q9NZQ7)
experiment-summary: Inhibition of Tag2-PD-1/Tag1-PD-L1 (unknown origin) protein-protein interaction incubated for 15 mins by HTRF assay
Type: protein-complex assay
outcome-measure: pIC50
// scale note: pIC50 = -log10(conc_M); give the bare number

CC(CO)(CO)NCc1cc(Cl)c(Oc2ncnc3c(-c4ccccc4)cccc23)cc1OCc1cncc(C#N)c1    7.49

Suppose we examine the compound N#Cc1cncc(COc2cc(Oc3ncnc4c(-c5ccccc5)cccc34)c(Cl)cc2CNC(CO)CO)c1 ; what pIC50 value has been reported? 7.24

Repeat with N#Cc1cccc(COc2cc(Oc3ncnc4c(-c5ccc6c(c5)OCCO6)cccc34)c(Cl)cc2CN2CCCC[C@@H]2C(=O)O)c1 6.39

====

assay-system: Programmed cell death protein 1/Programmed cell death 1 ligand 1 (Homo sapiens, UniProt Q15116+Q9NZQ7)
experiment-summary: Inhibition of Tag2-PD-1/Tag1-PD-L1 (unknown origin) protein-protein interaction incubated for 15 mins by HTRF assay
Assay type: protein-complex assay
outcome-measure: IC50 (nM)
Write the answer as a number in nM, unit excluded.

Sample records with IC50:
CC(CO)(CO)NCc1cc(Cl)c(Oc2ncnc3c(-c4ccccc4)cccc23)cc1OCc1cccc(C#N)c1    22.9
N#Cc1cccc(COc2cc(Oc3ncnc4c(-c5ccc6c(c5)OCCO6)cccc34)c(Cl)cc2CNC(CO)CO)c1    31.1
CC(=O)NCCNCc1cc(Cl)c(Oc2ncnc3c(-c4ccccc4)cccc23)cc1OCc1cncc(C#N)c1    187
N#Cc1cccc(COc2cc(Oc3ncnc4c(-c5ccc6c(c5)OCCO6)cccc34)c(Cl)cc2CNCCO)c1    22.4
CC(=O)NCCNCc1cc(Cl)c(Oc2ncnc3c(-c4ccc5c(c4)OCCO5)cccc23)cc1OCc1cncc(C#N)c1    96

Consider the record given below.
Suppose we examine the compound CC(CO)(CO)NCc1cc(Cl)c(Oc2ncnc3c(-c4ccc5c(c4)OCCO5)cccc23)cc1OCc1cccc(C#N)c1 ; what IC50 value has been reported? 18.8
